# target-of-assay: SP1, recombinant (Gallus gallus (chicken), UniProt A0A8V1A4P9 1-760)
# Sequence (A0A8V1A4P9 entry or part of it): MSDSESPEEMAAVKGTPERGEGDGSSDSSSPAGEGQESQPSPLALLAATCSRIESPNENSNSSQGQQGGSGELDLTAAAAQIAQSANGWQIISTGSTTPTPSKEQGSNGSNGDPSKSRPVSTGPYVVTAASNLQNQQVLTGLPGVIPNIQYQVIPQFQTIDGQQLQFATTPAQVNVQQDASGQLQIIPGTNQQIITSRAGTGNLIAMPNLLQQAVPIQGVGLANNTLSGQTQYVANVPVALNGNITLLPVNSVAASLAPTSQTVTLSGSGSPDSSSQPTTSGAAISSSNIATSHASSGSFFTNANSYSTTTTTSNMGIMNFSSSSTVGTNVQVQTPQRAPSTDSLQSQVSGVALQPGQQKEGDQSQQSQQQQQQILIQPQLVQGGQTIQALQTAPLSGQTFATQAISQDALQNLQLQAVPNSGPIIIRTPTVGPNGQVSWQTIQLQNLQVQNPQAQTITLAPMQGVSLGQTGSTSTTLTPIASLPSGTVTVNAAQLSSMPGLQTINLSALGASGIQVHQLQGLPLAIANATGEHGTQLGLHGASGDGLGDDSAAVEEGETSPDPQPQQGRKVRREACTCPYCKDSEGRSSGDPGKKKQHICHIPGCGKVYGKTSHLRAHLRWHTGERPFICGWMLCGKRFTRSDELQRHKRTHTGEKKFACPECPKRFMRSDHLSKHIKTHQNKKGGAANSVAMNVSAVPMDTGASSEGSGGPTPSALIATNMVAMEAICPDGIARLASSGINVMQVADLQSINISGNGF
# procedure-text: EMSA; EMSA buffer, salt, pH and temperature not given in the material; competitors at 50-fold molar excess
# condition-info: protein: recombinant; label: 32P (probe); blunt

binder	binding result
HS4 FI wt (dsDNA) DNA 1: GGAGCTCACGGGGACAGCCCCCCCCCAAAGCCCCCAGGGA DNA 2: TCCCTGGGGGCTTTGGGGGGGGGCTGTCCCCGTGAGCTCC	binds
HS4 FV wt (dsDNA) DNA 1: CCTGCAGACACCTGGGGGGATACGGGGAAAAAGCTTTAGG DNA 2: CCTAAAGCTTTTTCCCCGTATCCCCCCAGGTGTCTGCAGG	no binding
HS4 FIII wt (dsDNA) DNA 1: AGGCGCGCCCCGGTCCGGCGCTCCCCCCGCATCCCCGAGCCGGGGCGCGCCT DNA 2: AGGCGCGCCCCGGCTCGGGGATGCGGGGGGAGCGCCGGACCGGGGCGCGCCT	no binding
glo wt (betaA-globin promoter, G16) (dsDNA) DNA 1: AATTGCAGAGCTGGGAATCGGGGGGGGGGGGGGGGCGGGTGGTGGTGTGG DNA 2: CCACACCACCACCCGCCCCCCCCCCCCCCCCGATTCCCAGCTCTGCAATT	binds
